Test system: A2780
MEASUREMENT_PROTOCOL: In vitro cytotoxicity, IC50 by flow cytometry (Guava ViaCount)
Type: cell-based, human
EXPERIMENTAL_PARAMETERS: A2780 cells
QUANTITY_NAME: pIC50
By convention, pIC50 is the negative base-10 log of a molar concentration.

Example compounds with recorded pIC50:
COMPOUND: C[n+]1ccn(CCCCCCOC(=O)[C@]23CCC(C)(C)CC2C2=CCC4[C@@]5(C)CC[C@H](O)C(C)(C)C5CC[C@@]4(C)[C@]2(C)CC3)c1.O=C([O-])c1ccccc1O (some centres unmarked) [13f]
pIC50: 7.74
--
COMPOUND: C=C(C)[C@@H]1CC[C@]2(C(=O)[O-])CC[C@]3(C)[C@H](CC[C@@H]4[C@@]5(C)CC[C@H](O)C(C)(C)[C@@H]5CC[C@]43C)[C@@H]12.CCn1cc[n+](C)c1 [17a]
pIC50: 7.09
--
COMPOUND: CCn1cc[n+](C)c1.C[C@H]1[C@H](C)CC[C@]2(C(=O)[O-])CC[C@]3(C)C(=CC[C@@H]4[C@@]5(C)CC[C@H](O)C(C)(C)[C@@H]5CC[C@]43C)[C@H]12 [16a]
pIC50: 7.06
--
COMPOUND: C[C@H](O)C(=O)[O-].C[n+]1ccn(CCCCCCOC(=O)[C@]23CCC(C)(C)CC2C2=CCC4[C@@]5(C)CC[C@H](O)C(C)(C)C5CC[C@@]4(C)[C@]2(C)CC3)c1 (some centres unmarked) [13g]
pIC50: 7.89
--
COMPOUND: Cn1cc[n+](CCCCCCOC(=O)[C@]23CCC(C)(C)C[C@H]2C2=CC[C@@H]4[C@@]5(C)CC[C@H](O)C(C)(C)[C@@H]5CC[C@@]4(C)[C@]2(C)CC3)c1.F[P-](F)(F)(F)(F)F [13c]
pIC50: 7.85

We now examine a further compound.
Data request: // fetch A2780 pIC50 for Cn1cc[n+](CCCCCCOC(=O)C23CCC(C)(C)CC2C2=CCC4C5(C)CCC(O)C(C)(C)C5CCC4(C)C2(C)CC3)c1.[F][Sb-]([F])([F])([F])([F])[F] (centres unmarked) [13b]
Data returned: 7.68
